System: Staphylococcus aureus
Test: Antibacterial activity against Staphylococcus aureus MRSA ATCC 43300 (CO-ADD:GP_020); MIC in CAMBH media using NBS plates, by Resazurin F(560/590)
Type: functional
Conditions: Concentration 20 uM, ASSAY_TEST Inhibition of Bacterial Growth, detection method Resazurin, Fluorescence (ex560/em590), MEDIA CAMHB, plate type 384well, CORNING #3640, time 18 hr
Kindly return criterion met if reported Inhibition is no lower than 10%; return criterion not met if it is lower.

**Q:** Does `CCOc1ccc2sc(NS(=O)(=O)c3ccc(N)cc3)nc2c1` have a reported Inhibition of at least 10%?
**A:** criterion not met

**Q:** # bool: Inhibition of `Cc1ccc(C(=N)Nc2ccccc2)cc1` >= 10%
**A:** criterion met

----------
Each item that follows carries a reported Inhibition.
System: Cryptococcus neoformans
Settings: Concentration 20 uM; ASSAY_TEST Inhibition of Fungal Growth; detection method Resazurin; Absorption (OD600-OD570); plate type 384well; NBS; CORNING #3640
Description: Antifungal activity against Cryptococcus neoformans H99 ATCC 208821 (CO-ADD:FG_002); MIC in YNB media using NBS plates, by Resazurin OD(600-570)
Potency and affinity values are given separately.
Provide only the numeric value, understood in %.

Below are worked cases with known answers.
O=C1c2cccc(Oc3ccccc3)c2C(=O)c2cccc(Oc3ccccc3)c21; -5.27
O=C1CCC(c2ccccc2)(c2ccccc2)CC1; -9.68
C(=C\c1ccc(/C=C/c2ccccc2)nn1)/c1ccccc1; -5.49

**Q:** Quick one: Inhibition of `CNC(=O)c1nn(C)c(=O)[nH]c1=O` ?
**A:** -7.3

**Q:** Requested read-out: Inhibition. Entry: `CC(=O)/C=C(\C)Nc1ccccc1O`
**A:** 2.5

**Q:** Bench note: what Inhibition did `Oc1cccc2cnccc12` show?
**A:** 3.35

**Q:** # Inhibition lookup, item `COc1ccc(C(=S)N2CCN(c3ccccc3C)CC2)cc1`
**A:** -16.11

**Q:** Which Inhibition reading was recorded for the molecule `CC(C)c1ncc(CO)n1Cc1c(Cl)cccc1Cl` ?
**A:** -9.37

**Q:** Look up Inhibition: `Nc1[nH]nc2nc(-c3ccccc3)nc(O)c12`
**A:** -3.34

----------
Listed here: items and their measured Inhibition.
Test system: Staphylococcus aureus
Assay: Antibacterial activity against Staphylococcus aureus MRSA ATCC 43300 (CO-ADD:GP_020); MIC in CAMBH media using NBS plates, by Resazurin F(560/590)
Type: functional
Conditions: Concentration 20 uM, ASSAY_TEST Inhibition of Bacterial Growth, detection method Resazurin, Fluorescence (ex560/em590), MEDIA CAMHB, plate type 384well, CORNING #3640, time 18 hr
Expressed in %, but write only the number.

Clc1nc(Cl)nc(-c2cn(-c3ccccc3)c3ccccc23)n1; 19.15
O=[N+]([O-])c1ccccc1CSc1nc(O)c2nc[nH]c2n1; 26.98

Here is another compound to look at.
**Q:** Entry under review: `CCCCSc1nc(O)cc(C(=O)O)n1` . Reported Inhibition?
**A:** 3.28

----------
Measured Inhibition of individual entries
Test system: Cryptococcus neoformans
Conditions: Concentration 20 uM; ASSAY_TEST Inhibition of Fungal Growth; detection method Resazurin; Absorption (OD600-OD570); plate type 384well; NBS; CORNING #3640
Measured potencies and affinities stand elsewhere.
Number in %, nothing else.

Example compounds with recorded Inhibition:
O=C(Nc1cccc([N+](=O)[O-])c1)c1cccc(C(=O)Nc2cccc([N+](=O)[O-])c2)c1; 37.96
CCOC(=O)c1cc2c(OC)c(OC)ccc2c2ncc(C#N)c(O)c12; 44.69
C=CCC(CC)C(=O)NC(=O)N1CCCc2ccccc21 (stereo unspecified); -1.85

**Q:** I am curious: what Inhibition value has been reported for CCC(C)NC(=O)c1cccc(C)c1 (stereo unspecified) ?
**A:** -7.62

**Q:** What does the data say about its Inhibition? Entry: COc1cccc(OCC(O)CN2CCN(c3ccc(Cl)cc3)CC2)c1 (stereo unspecified)
**A:** -12.54

**Q:** Which Inhibition is listed for `Cc1n[nH]c2c([N+](=O)[O-])c(=O)[nH]c(=O)n12` ?
**A:** -13.65
